Assay protocol: Biodistribution studies in mice (radioiodinated compounds, % ID/g-tissue)
Format: in vivo
Protocol conditions: mouse, liver, iv, liver, 60', tracer level, but MDTA-Na 0.18M and MDTA-NMG 0.19M, read-out: Biodistribution, Liver 60'
Could you please classify the records by tissue uptake at 1 h using these ranges: lower range = under 2 %ID/g, middle range = from 2 %ID/g up to 5 %ID/g, upper range = 5 %ID/g and over

Below, 4 molecules whose answers are already recorded.
### Prompt # classify by tissue uptake at 1 h band: CC(=O)N(C)c1c(I)c(C(=O)Nc2ccc(CCCCCCCCCCCCCCC(=O)O)cc2)c(I)c(N(C)C(C)=O)c1I [Example F15-P-MDTA]
### Response upper range

### Prompt # classify by tissue uptake at 1 h band: CC(=O)N(C)c1c(I)c(C(=O)NCCCCCCC(=O)O)c(I)c(N(C)C(C)=O)c1I [Example F7-DP-MDTA]
### Response lower range

### Prompt # classify by tissue uptake at 1 h band: CC(=O)N(C)c1c(I)c(C(=O)NCCCCCCCCCCCC(=O)O)c(I)c(N(C)C(C)=O)c1I [Example F12-DP-MDTA]
### Response middle range

### Prompt # classify by tissue uptake at 1 h band: CC(=O)N(C)c1c(I)c(C(=O)Nc2ccc(CC(=O)O)cc2)c(I)c(N(C)C(C)=O)c1I [Example F2-P-MDTA]
### Response middle range

More entries:
### Prompt # classify by tissue uptake at 1 h band: CC(=O)N(C)c1c(I)c(C(=O)Nc2ccc(CCCC(=O)O)cc2)c(I)c(N(C)C(C)=O)c1I [Example F4-P-MDTA]
### Response upper range

### Prompt # classify by tissue uptake at 1 h band: CC(=O)N(C)c1c(I)c(C(=O)NCCCC(=O)O)c(I)c(N(C)C(C)=O)c1I [Example F4-DP-MDTA]
### Response lower range

### Prompt # classify by tissue uptake at 1 h band: CC(=O)N(C)c1c(I)c(C(=O)NCC(=O)O)c(I)c(N(C)C(C)=O)c1I [Example F2-DP-MDTA]
### Response lower range

### Prompt # classify by tissue uptake at 1 h band: CC(=O)N(C)c1c(I)c(C(=O)Nc2ccc(CCCCCCCCCCCCCCCCCCC(=O)O)cc2)c(I)c(N(C)C(C)=O)c1I [Example F19-P-MDTA]
### Response upper range

### Prompt # classify by tissue uptake at 1 h band: CC(=O)N(C)c1c(I)c(C(=O)Nc2ccc(CCCCCCCCCCC(=O)O)cc2)c(I)c(N(C)C(C)=O)c1I [Example F11-P-MDTA]
### Response middle range
